Target: Human recombinant Vanin-1 (VNN1) (Homo sapiens, UniProt O95497)
Test: Vanin-1 enzymatic assay (fluorescence intensity, Pantothenate-AMC substrate)
Settings: purified recombinant human Vanin-1 0.5 nM; 30 min preincubation at 30° C.; Pantothenate-AMC 30 μM, 60 min
Procedure: Human recombinant Vanin-1 (VNN1) was purchased from Sino Biological Inc. (Catalog Number: 11662-H08H). Measurement of VNN1 inhibition is performed in 384-well format based on fluorescence intensity assay. […] After 60 minutes of incubation at 30° C. with gentle agitation, fluorescence intensity is measured at λex=350 nm and λem=450 nm with a fluorescence reader (BMG PHERAstar reader or equivalent).
pIC50: −log10 of the molar value.
Label label 0 if pIC50 falls below 6; label label 1 in every other case.

chem.smiles | class.name
CC(C)(CO)[C@@H](O)C(=O)NCCC(=O)C(=O)NCc1ccc(Br)cc1 | label 1
CC(C)(CO)[C@@H](O)C(=O)NCCC(=O)C(=O)NCC1CCN(S(=O)(=O)c2ccc(-c3ccccc3)cc2)CC1 | label 1
CC(C)(CO)[C@@H](O)C(=O)NCCC(=O)C(=O)NCC1CCN(S(C)(=O)=O)CC1 | label 1
CC(C)(CO)[C@@H](O)C(=O)NCCC(=O)C(=O)NCCCN1CCOCC1=O | label 1
CC(C)(CO)[C@@H](O)C(=O)NCCC(=O)C(=O)NCc1ccccc1C(F)(F)F | label 1
CC(C)(CO)[C@@H](O)C(=O)NCCC(=O)C(=O)NCc1cccc2ccccc12 | label 1

Switching to the query record.
Ask: Answer whether pIC50 of "CC(C)(CO)[C@@H](O)C(=O)NCCC(=O)C(=O)Nc1ccccc1" is greater than or equal to 6.
Result: label 0

###

Listed here: items and their measured pIC50.
Biological target: Vanin-1 in SUIT-S2 cell line (Homo sapiens)
Construct: endogenous in cells
Sequence (O95497 22-491): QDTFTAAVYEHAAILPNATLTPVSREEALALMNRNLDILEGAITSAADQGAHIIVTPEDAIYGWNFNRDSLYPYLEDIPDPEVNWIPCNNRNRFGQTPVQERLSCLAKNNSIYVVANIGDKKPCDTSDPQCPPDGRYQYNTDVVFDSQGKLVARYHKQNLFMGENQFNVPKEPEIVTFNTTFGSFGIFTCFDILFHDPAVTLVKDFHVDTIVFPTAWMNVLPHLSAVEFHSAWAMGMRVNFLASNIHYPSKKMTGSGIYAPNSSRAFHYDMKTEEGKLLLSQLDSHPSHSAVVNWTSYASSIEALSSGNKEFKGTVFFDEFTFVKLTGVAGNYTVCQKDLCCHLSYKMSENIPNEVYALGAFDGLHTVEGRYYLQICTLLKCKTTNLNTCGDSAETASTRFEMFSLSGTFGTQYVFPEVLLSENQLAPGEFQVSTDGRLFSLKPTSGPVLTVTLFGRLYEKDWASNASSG
Assay: Vanin-1 cell-based mechanistic assay (fluorescence intensity, Pantothenate-AMC substrate)
Conditions: 40000 cells per well, 2 hours incubation at 37° C., Pantothenate-AMC 30 μM, 30 min
Description: Vanin-1 Cell-Based Mechanistic Assay: The cellular activity of the examples is measured in 96-well format based on fluorescence intensity assay using SUIT-S2 cell line (ATCC # CRL1596). Cells are cultured at 37° C. with 5% CO2 to 80-90% confluence and then washed once with phosphate-buffered saline (PBS). […] After 30 minutes of incubation at 30° C. with gentle agitation, fluorescence intensity is measured at λex=350 nm and λem=450 nm with a fluorescence reader (BMG PHERAstar reader or equivalent).
pIC50: −log10 of the molar value.

Worked cases, answers included:
chem.smiles | property | observed.value
CC(C)(CO)[C@@H](O)C(=O)NCCC(=O)C(=O)NCc1ccc(OCCNS(C)(=O)=O)cc1 | pIC50 | > 8.00
CC(C)(CO)[C@@H](O)C(=O)NCCC(=O)C(=O)NCc1ccc(C(=O)NCCc2ccc(Oc3ccccc3)cc2)cc1 | pIC50 | > 8.00
CC(C)(CO)[C@@H](O)C(=O)NCCC(=O)C(=O)NCC1CCCCC1 | pIC50 | 7.14
CC(C)(CO)[C@@H](O)C(=O)NCCC(=O)C(=O)NCc1ccc(S(C)(=O)=O)cc1 | pIC50 | > 8.00

Kindly review the next compound as well.
The compound "CC(C)(CO)[C@@H](O)C(=O)NCCC(=O)C(=O)NCc1ccc(S(=O)(=O)N2CCCCC2)cc1" showed pIC50 equal to > 8.00
